- Method notes: qHTS Assay for Lipid Storage Modulators in Drosophila S3 Cells
- Run parameters: BODIPY lipid droplet fluorescence, 18-24 h, cells fed with added oleic acid; series mostly up to 46.1 µM
The whole screen tested about 320,000 compounds, of which about 2,100 (0.66%) were called active. Inconclusive results (about 53%) are left out. The call rests on the fitted dose curve; in most records, active means well fitted inhibition curve with a large enough effect in the signal ratio, with a control signal flat (not every such curve was filed as active); inconclusive means small, poorly fitted or top-dose-only effect, or effect the other way, or a change in a side signal; inactive means flat fitted curve, though single readings scatter; the % refers to the signal ratio. Shown is part of a subset that was picked to be rich in actives.
Possible outcomes: 1.0 = active, 0.0 = inactive

Compound	Group
COc1ccc(/C=C2\SC(=S)N(CCC(=O)N3CCCCC3CCO)C2=O)cc1 (configuration not stated)	1.0
Cc1ccc(C(=O)NC(Cc2c[nH]c3ccccc23)C(=O)O)cc1 (configuration not stated)	1.0
CCN(C(=O)CN1C(=O)/C(=C/c2ccccc2)SC1=S)C1CCS(=O)(=O)C1 (configuration not stated)	0.0
O=C1/C(=C/c2ccc(Cl)cc2)SC(=S)N1CCC(=O)N1CCCCC1CCO (configuration not stated)	0.0
CC1=[N+]([O-])C(C)(C)C(C)N(O)C1=O (configuration not stated)	0.0
Cc1ccc(C(=O)Nc2ccccc2C(=O)NC(Cc2c[nH]c3ccccc23)C(=O)O)cc1 (configuration not stated)	0.0
CC1=CC2=NC(=O)/C(=C\c3ccc(-c4ccc(Cl)cc4)o3)C(=N)N2O1	0.0
COc1ccc2[nH]c(C(=O)O)c(CCN3C(=O)c4ccc(C(=O)O)cc4C3=O)c2c1	0.0
NS(=O)(=O)c1ccc(NC(=O)Nc2ccc(Cl)cc2)cc1	0.0
COCCCn1c(C)nnc1-c1cnn(-c2ccccc2)c1N	0.0
Cc1ccc(NC(=O)CCN2C(=O)c3ccccc3C2=O)c(C)c1	0.0
O=C(Nc1ccccn1)c1cc(-n2cnnc2)ccc1Cl	0.0
CCOC(=O)c1cc2c(=O)n3cccc(C)c3nc2n(CCCOC)c1=NC(=O)c1cccnc1	0.0
O=C1NC2c3ccccc3CC2O1 (configuration not stated)	0.0
COc1ccc(/C=C2\SC(=S)N(CCCC(=O)N3CCN(C)CC3)C2=O)cc1	0.0
COc1cc(/C=C2\SC(=S)N(CCCCC(=O)O)C2=O)ccc1OS(=O)(=O)c1ccc(C)cc1	1.0
Cc1[nH]c2ccccc2c1C(=O)C(=O)N1CCN(C(=O)c2ccco2)CC1	0.0
CC(C)c1ccc2c(c1)[C@H]1OCC[C@H]1[C@@H](c1cccs1)N2	0.0
O=C(CCCN1C(=O)/C(=C/c2ccccc2)SC1=S)N1CCOCC1	0.0
CC(C)c1ccc2c(c1)C1Cc3ccccc3C1N2 (configuration not stated)	1.0
O=C(O)CCCCN1C(=O)/C(=C\c2ccc(OCc3ccccc3)c(OCc3ccccc3)c2)SC1=S	0.0
CCCCn1c(SCC(=O)NCc2ccco2)nc2c1c(=O)n(C)c(=O)n2C	0.0

* * *

- Method notes: qHTS Assay for Lipid Storage Modulators in Drosophila S3 Cells
- Run parameters: BODIPY lipid droplet fluorescence, 18-24 h, cells fed with added oleic acid; series mostly up to 46.1 µM
The whole screen tested about 320,000 compounds, of which about 2,100 (0.66%) were called active. Roughly 53% stayed inconclusive and do not appear here. Calls follow the shape of the dose curve; as a rule, active = well fitted inhibition curve with a large enough effect in the signal ratio, with a control signal flat (not every such curve was filed as active); inconclusive = small, poorly fitted or top-dose-only effect, or effect the other way, or a change in a side signal; inactive = flat fitted curve, though single readings scatter; the % refers to the signal ratio. This is one part of a sample in which actives are shown more often than they occur.
Possible outcomes: class 1 for active, class 0 for inactive

Molecule	Group
CCc1ccc(N2CC(C(=O)Nc3nc4ccc(S(C)(=O)=O)cc4s3)CC2=O)cc1 (stereo unspecified)	class 1
CCC1CN(C(=O)N2CCC(C(=O)NCc3cc(OC)c(OC)c(OC)c3)CC2)c2ccccc2O1 (stereo unspecified)	class 0
COc1ccc(NC(=O)COC(=O)C2CCC2)cc1Cl	class 0
CCC1CN(C(=O)N2CCC(C(=O)NCc3ccccc3OC)CC2)c2ccccc2O1 (stereo unspecified)	class 0
COc1ccc2nc(SCC(=O)NC3CCCCC3)[nH]c2c1	class 0
CCC1CN(C(=O)N2CCC(C(=O)NCCc3ccc(OC)c(OC)c3)CC2)c2ccccc2O1 (stereo unspecified)	class 0
CC(=O)c1c(C)[nH]c(C(=O)NCc2cccs2)c1C	class 0
Cc1ccc(-c2nc(NCc3ccco3)n(C(=O)c3ccco3)n2)cc1	class 0
O=C(NNS(=O)(=O)c1ccccc1)c1cnn(-c2ccccc2)c1-n1cccc1	class 0
CCC1CN(C(=O)N2CCC(C(=O)NCCc3ccc(OC)cc3OC)CC2)c2ccccc2O1 (stereo unspecified)	class 1
COc1cccc(C(=O)N2CCN(C(=O)C3COc4ccccc4O3)CC2)c1 (stereo unspecified)	class 0
Cc1nccc2[nH]c(=O)c(C(=O)NC3CCCCC3C)cc12 (stereo unspecified)	class 0
CCC1CN(C(=O)N2CCC(C(=O)NCCc3ccccc3)CC2)c2ccccc2O1 (stereo unspecified)	class 0
COc1ccc(OC)c(NC(=O)CCN2C(=O)c3cccc([N+](=O)[O-])c3C2=O)c1	class 0
O=C(Nc1nc2ccccc2s1)C1CC(=O)N(c2ccc(Br)cc2)C1 (stereo unspecified)	class 0
COC(CNC(=O)c1ccc(CS(=O)(=O)c2ccc(C)cc2)o1)OC	class 0
CCC1CN(C(=O)N2CCC(C(=O)NCc3ccccc3C)CC2)c2ccccc2O1 (stereo unspecified)	class 1
CC(=O)N1CCc2cc(S(=O)(=O)CCC(=O)N3CCN(c4ccccn4)CC3)ccc21	class 0
O=C(Nc1ccc(N2CCOCC2)cc1)C1CC(=O)N(c2ccc(F)cc2)C1 (stereo unspecified)	class 0
CCc1ccc(N2CC(C(=O)Nc3nccs3)CC2=O)cc1 (stereo unspecified)	class 0
Cc1ccc(-c2nn(C)c(=O)c3ccccc23)cc1CNC(=O)/C=C/c1ccccc1	class 0
